Origin of values: paper PMC6308234

# SYSTEM NAME: T1, DENV-3 nonstructural protein 1 (NS1), recombinant (Dengue virus 3, strain Sri …, UniProt Q6YMS4)
# T1 construct: also called DENV-3 NS1; NS1 from DENV-3; source: bought: Native Antigen Company (recombinant)
# T1 sequence (Q6YMS4 774-1125): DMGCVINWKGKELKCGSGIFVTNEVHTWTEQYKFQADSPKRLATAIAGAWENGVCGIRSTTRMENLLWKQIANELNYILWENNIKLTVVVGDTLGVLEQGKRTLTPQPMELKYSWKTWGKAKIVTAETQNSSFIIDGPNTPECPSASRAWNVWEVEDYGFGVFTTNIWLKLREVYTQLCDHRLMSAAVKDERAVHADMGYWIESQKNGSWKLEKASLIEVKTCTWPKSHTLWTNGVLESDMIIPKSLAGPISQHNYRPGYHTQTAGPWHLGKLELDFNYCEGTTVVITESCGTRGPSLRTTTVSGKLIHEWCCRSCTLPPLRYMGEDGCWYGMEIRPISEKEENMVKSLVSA
# ASSAY OVERVIEW: SPR
# TEST PARAMETERS: both partners purified
pKd: −log10 of the molar value.
Assign class by pKd: not lower than 8 means fulfilled; lower than 8 means not fulfilled.

Example entries and their recorded answers appear below.
INSERT INTO assay_data (binder, classification) VALUES
  ('sdAb DH4 (VHH, source: E. coli Turner (DE3), pET22b, periplasmic, purified (Ni-Sepharose, SEC)) VHH: DVQLQASGGGVVQAGGSLRVSCAATGIAFASYAVAWYRQAPGKQREWVATVGGLGGTKYVDSVRGRFTISRDNAKNAVTLQMNSLKPEDTAVYYCAAVEWDDGHYYWDTWGQGTRVTVSA', 'not fulfilled'),
  ('sdAb DB5 (VHH, source: E. coli Turner (DE3), pET22b, periplasmic, purified (Ni-Sepharose, SEC)) VHH: DVQLQASGGGLVQDGGSLRLSCAASGLGFRIHSMGWYRQAPGKARDLVAVITDSGQTNYAPSVKGRFTISRESAGNTVYLQMNSLKPDDTAVYYCAVTTWDPHSYWGQGTQVTVSS', 'fulfilled'),
  ('sdAb DD1 (VHH, source: E. coli Turner (DE3), pET22b, periplasmic, purified (Ni-Sepharose, SEC)) VHH: EVQLQASGGGLVQAGGSLRVSCAATGIAFASYAVAWYRQAPGKQREWVATVGGLGGTKYVDSVKGRFTISRDNAKNAVTLQMNSLKPEDTAVYYCAAVEWDDGHYYWDTWGQGTRVTVSA', 'not fulfilled'),
  ('sdAb DD6 (VHH, source: E. coli Turner (DE3), pET22b, periplasmic, purified (Ni-Sepharose, SEC)) VHH: EVQLQASGGGSVQAGGSLRLSCAHSSITVPDYTIGWYRRAPGKGGEEVSLISMHGGRTWYAGSVKGRFAISRDSVKNTVYLQMNNLKPEDTDIYYCGGTTFGLAAAPNEYDSWGQGSQVTVSS', 'fulfilled');

Data request: Check this binder for pKd at or above 8: sdAb DD9 (VHH, source: E. coli Turner (DE3), pET22b, periplasmic, purified (Ni-Sepharose, SEC)) VHH: EVQLQASGGGLVQAGGSLRVSCAASGIAFTNYALAWYRQPPGKQREWVATVGVLGGTKYADSVKGRFAISRDNAKNTVILQMNSLKPVDTAVYFCAAVEWSNGRYYWDSWGQGTQVTVSA
Data returned: not fulfilled

Data request: Check this binder for pKd at or above 8: sdAb DC7 (VHH, source: E. coli Turner (DE3), pET22b, periplasmic, purified (Ni-Sepharose, SEC)) VHH: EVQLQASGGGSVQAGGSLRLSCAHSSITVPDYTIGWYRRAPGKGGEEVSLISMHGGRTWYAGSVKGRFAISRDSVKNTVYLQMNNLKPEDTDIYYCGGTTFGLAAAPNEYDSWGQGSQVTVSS
Data returned: fulfilled

Data request: Check this binder for pKd at or above 8: sdAb DD5 (VHH, source: E. coli Turner (DE3), pET22b, periplasmic, purified (Ni-Sepharose, SEC)) VHH: EVQLQASGGGLVQAGGSLRLSCAASGRAFSSETMGWFRQAPGKEREFVAAIWRIGGSTYNTDYADSVKGRFAISADRAKNTVDLQMNTLKPEDTAVYYCAGKMRGRSVNLYDYDYWGQGTQVTVSS
Data returned: fulfilled

Data request: Check this binder for pKd at or above 8: sdAb DC4 (VHH, source: E. coli Turner (DE3), pET22b, periplasmic, purified (Ni-Sepharose, SEC)) VHH: EVQLQASGGGLVQAGGSLRLSCAASERTFSHYFVGWFRQAPGKEREFVARITWSGSNVEYEDAVKDRFTLSSDNAKNTVYLHMNSLKPEDTAVYYCAAANTIWTPTIRDYNVWGQGTQVTVSS
Data returned: not fulfilled
